Where do these numbers come from? They come from patent US5928933A.

Assay: Enzyme screens for resolution of racemic N-(methoxycarbonyl)-4-keto-D,L-proline methyl ester (Example 1)
Assay type: biochemical
Details: 0.100M racemate; pH 6.0, 5 h or pH 5.0, 24 h; 5.0 to 50 mg/mL enzyme; 25° C.; optimum
ENDPOINT_LABEL: % ee (enantiomeric excess of the D-isomer; L-isomer with porcine liver esterase)

# MOLECULE, OBS_VALUE
rows = [
    ("protease, type VIII: commercial enzyme preparation, source Bacillus licheniformis (protein, UniProt P00780 106-379, looked up) Subtilisin Carlsberg: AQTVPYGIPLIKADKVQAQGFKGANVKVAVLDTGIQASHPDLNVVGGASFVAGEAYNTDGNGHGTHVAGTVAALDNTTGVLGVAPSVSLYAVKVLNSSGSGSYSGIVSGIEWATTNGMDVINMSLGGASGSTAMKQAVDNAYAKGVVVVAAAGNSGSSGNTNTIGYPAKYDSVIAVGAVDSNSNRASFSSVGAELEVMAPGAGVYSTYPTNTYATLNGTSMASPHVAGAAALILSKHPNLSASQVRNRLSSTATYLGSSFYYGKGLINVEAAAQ", "23%"),
    ("protease, trypsin bovine pancreas: commercial trypsin, source bovine pancreas (protein, UniProt P00760 24-246, looked up) Serine protease 1: IVGGYTCGANTVPYQVSLNSGYHFCGGSLINSQWVVSAAHCYKSGIQVRLGEDNINVVEGNEQFISASKSIVHPSYNSNTLNNDIMLIKLKSAASLNSRVASISLPTSCASAGTQCLISGWGNTKSSGTSYPDVLKCLKAPILSDSSCKSAYPGQITSNMFCAGYLEGGKDSCQGDSGGPVVCSGKLQGIVSWGSGCAQKNKPGVYTKVCNYVSWIKQTIASN", "0%"),
    ("protease, type XXVII: commercial enzyme preparation, (Nagarase) (protein, UniProt P00782 108-382, looked up) Subtilisin BPN': AQSVPYGVSQIKAPALHSQGYTGSNVKVAVIDSGIDSSHPDLKVAGGASMVPSETNPFQDNNSHGTHVAGTVAALNNSIGVLGVAPSASLYAVKVLGADGSGQYSWIINGIEWAIANNMDVINMSLGGPSGSAALKAAVDKAVASGVVVVAAAGNEGTSGSSSTVGYPGKYPSVIAVGAVDSSNQRASFSSVGPELDVMAPGVSIQSTLPGNKYGAYNGTSMASPHVAGAAALILSKHPNWTNTQVRSSLENTTTKLGDSFYYGKGLINVQAAAQ", "21%"),
    ("protease, type X: commercial enzyme preparation, source B. thermoproteoliticus rokko (protein, UniProt P00800 233-548, looked up) Thermolysin: ITGTSTVGVGRGVLGDQKNINTTYSTYYYLQDNTRGNGIFTYDAKYRTTLPGSLWADADNQFFASYDAPAVDAHYYAGVTYDYYKNVHNRLSYDGNNAAIRSSVHYSQGYNNAFWNGSQMVYGDGDGQTFIPLSGGIDVVAHELTHAVTDYTAGLIYQNESGAINEAISDIFGTLVEFYANKNPDWEIGEDVYTPGISGDSLRSMSDPAKYGDPDHYSKRYTGTQDNGGVHINSGIINKAAYLISQGGTHYGVSVVGIGRDKLGKIFYRALTQYLTPTSNFSQLRAAAVQSATDLYGSTSQEVASVKQAFDAVGVK", "0%"),
    ("protease (Chirazyme P1): commercial enzyme preparation, source Bacillus licheniformis (protein, UniProt P00780 106-379, looked up) Subtilisin Carlsberg: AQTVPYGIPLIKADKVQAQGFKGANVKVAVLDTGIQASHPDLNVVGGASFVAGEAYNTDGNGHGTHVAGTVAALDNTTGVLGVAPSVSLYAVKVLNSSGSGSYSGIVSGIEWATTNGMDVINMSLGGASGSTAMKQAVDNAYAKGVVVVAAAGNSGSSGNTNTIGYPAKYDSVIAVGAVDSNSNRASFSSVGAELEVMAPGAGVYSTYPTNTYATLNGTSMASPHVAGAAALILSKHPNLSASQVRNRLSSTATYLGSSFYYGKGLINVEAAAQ", "65%"),
]
